# Tested on: HeLa
# RUN_DESCRIPTION: Cytotoxicity against Homo sapiens (human) HeLa cells assessed as cell viability at 100 uM by MTT assay
# Format: functional
# RUN_PARAMETERS: read-out: Activity
So basically every entry gets a class from its viability at 100 µM, ranges being interval 1: < 60%; interval 2: ≥ 60% and < 70%; interval 3: ≥ 70%

Record excerpt, results attached:
CCN1CCN(CCCn2nc(-c3ccccc3)cc(Cc3ccccc3)c2=O)CC1 = interval 1
O=c1c(Cc2cccs2)cc(-c2ccccc2)nn1CCCN1CCN(Cc2ccccc2)CC1 = interval 3
O=c1c(Cc2ccccn2)cc(-c2ccccc2)nn1CCCN1CCN(c2cccc(Cl)c2)CC1 = interval 3

Exercise: Category lookup for the compound O=c1c(Cc2ccccc2)cc(-c2ccccc2)nn1CCCN1CCN(c2cccc(Cl)c2)CC1
Solution: interval 1

Exercise: Category lookup for the compound O=c1c(Cc2ccccc2)cc(-c2ccccc2)nn1CCCN1CCN(c2ccccc2)CC1
Solution: interval 3

Exercise: Category lookup for the compound O=c1c(Cc2ccco2)cc(-c2ccccc2)nn1CCCN1CCN(c2cccc(Cl)c2)CC1
Solution: interval 2

Exercise: Category lookup for the compound CCN1CCN(CCCn2nc(-c3ccccc3)cc(Cc3ccccn3)c2=O)CC1
Solution: interval 2

Exercise: Category lookup for the compound O=c1c(Cc2ccccn2)cc(-c2ccccc2)nn1CCCN1CCOCC1
Solution: interval 3

Exercise: Category lookup for the compound O=c1c(Cc2ccccc2)cc(-c2ccccc2)nn1CCCN1CCN(Cc2ccccc2)CC1
Solution: interval 1

* * *

# viability at 100 µM listing for each entry below
# RUN_DESCRIPTION: Cytotoxicity against Homo sapiens (human) H1299 cells assessed as cell viability at 100 uM by MTT assay
# Assay type: functional
# RUN_PARAMETERS: NCI-H1299, read-out: Activity
Give just the number in %; leave the unit off.

O=c1c(Cc2ccco2)cc(-c2ccccc2)nn1CCCN1CCN(c2ccccc2)CC1 = 78.5
O=c1c(Cc2ccco2)cc(-c2ccccc2)nn1CCCN1CCOCC1 = 90.5
O=c1c(Cc2ccccn2)cc(-c2ccccc2)nn1CCCN1CCN(c2ccccc2)CC1 = 77.6
O=c1c(Cc2cccs2)cc(-c2ccccc2)nn1CCCN1CCOCC1 = 95.5
CCN1CCN(CCCn2nc(-c3ccccc3)cc(Cc3ccccc3)c2=O)CC1 = 94.7

Exercise: Fill blank: measured viability at 100 µM of the molecule CCN1CCN(CCCn2nc(-c3ccccc3)cc(Cc3ccco3)c2=O)CC1 is ____.
Solution: 95.4

Exercise: Fill blank: measured viability at 100 µM of the molecule O=c1c(Cc2ccccc2)cc(-c2ccccc2)nn1CCCN1CCOCC1 is ____.
Solution: 90.5

Exercise: Fill blank: measured viability at 100 µM of the molecule O=c1c(Cc2ccco2)cc(-c2ccccc2)nn1CCCN1CCN(c2cccc(Cl)c2)CC1 is ____.
Solution: 90.1

Exercise: Fill blank: measured viability at 100 µM of the molecule O=c1c(Cc2cccs2)cc(-c2ccccc2)nn1CCCN1CCN(c2ccccc2)CC1 is ____.
Solution: 81.5

Exercise: Fill blank: measured viability at 100 µM of the molecule O=c1c(Cc2cccs2)cc(-c2ccccc2)nn1CCCN1CCN(c2cccc(Cl)c2)CC1 is ____.
Solution: 92.8

* * *

# viability at 50 µM listing for each entry below
# RUN_DESCRIPTION: Cytotoxicity against Homo sapiens (human) H1299 cells assessed as cell viability at 50 uM by MTT assay
# Type: functional
# RUN_PARAMETERS: NCI-H1299, read-out: Activity
Give just the number in %; leave the unit off.

O=c1c(Cc2cccs2)cc(-c2ccccc2)nn1CCCN1CCOCC1 = 96.1

Exercise: Fill blank: measured viability at 50 µM of the compound O=c1c(Cc2ccccn2)cc(-c2ccccc2)nn1CCCN1CCN(c2ccccc2)CC1 is ____.
Solution: 88

Exercise: Fill blank: measured viability at 50 µM of the compound O=c1c(Cc2ccco2)cc(-c2ccccc2)nn1CCCN1CCN(c2cccc(Cl)c2)CC1 is ____.
Solution: 94.1

Exercise: Fill blank: measured viability at 50 µM of the compound O=c1c(Cc2ccccc2)cc(-c2ccccc2)nn1CCCN1CCOCC1 is ____.
Solution: 95.2
